Tested on: CP194
Protocol: qHTS profiling for inhibitors of Plasmodium falciparum proliferation (AID 504749); note: nearly all actives have a fitted effect of over 60% in size
Experimental setup: P. falciparum in erythrocytes, SYBR Green DNA, 72 h; series mostly up to 28.7 µM
Results filed as inconclusive are left out. The source made the active and inactive calls. Calls come from the whole dose curve; as a rule, active = well fitted inhibition curve with a large enough effect; inconclusive = small, poorly fitted or top-dose-only effect; inactive = flat fitted curve, though single readings scatter.
Bench note: report the call from T = active, F = inactive

Examples from the recorded data:
Compound: Nc1nc(Cl)nc2c1ncn2C1CC(O)C(CO)O1 (stereo not given)
Class assignment: F

Compound: Cc1cc(CC(C)CC(C)(C)C)n(O)c(=O)c1 (stereo not given)
Class assignment: T

Compound: CC(=O)O[C@@]12CO[C@@H]1C[C@H](O)[C@@]1(C)C(=O)[C@H](O)C3=C(C)[C@@H](OC(=O)C(O)[C@@H](NC(=O)OC(C)(C)C)c4ccccc4)C[C@@](O)([C@@H](OC(=O)c4ccccc4)[C@H]21)C3(C)C (stereo not given in full)
Class assignment: T

Compound: CC(C)CN(C[C@@H](O)[C@H](Cc1ccccc1)NC(=O)O[C@H]1CCOC1)S(=O)(=O)c1ccc(N)cc1
Class assignment: F

Below: the item to evaluate.
Q) What did this assay record as the result for `O=NCc1ccc([N+](=O)[O-])o1` ?
A) F
